The values you see were collected from the RNAGym collection of RNA variant scans (doi:10.7554/elife.80360).

B1: HDV Ribozyme (parent)
chain: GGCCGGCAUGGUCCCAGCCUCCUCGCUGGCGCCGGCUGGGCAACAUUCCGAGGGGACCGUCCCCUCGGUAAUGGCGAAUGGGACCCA

# Variants of: B1
# Experiment Notes: self-cleavage, relative activity (ratio to wild type); higher = more cleavage; co-transcriptional
Kindly state self-cleavage for each of the entries shown.
Please respond with just the number, no unit label.

**Q:** Fill in reported self-cleavage for this entry: G40U G54C
**A:** 0.513

**Q:** Fill in reported self-cleavage for this entry: C61A G82U
**A:** 0.507

**Q:** Fill in reported self-cleavage for this entry: C36G C41G
**A:** 0.151

**Q:** Fill in reported self-cleavage for this entry: A42C A45G
**A:** 0.465

**Q:** Fill in reported self-cleavage for this entry: G54U U65G
**A:** 0.782

**Q:** Fill in reported self-cleavage for this entry: C26G U79G
**A:** 0.8

**Q:** Fill in reported self-cleavage for this entry: A8G C14U
**A:** 0.997

**Q:** Fill in reported self-cleavage for this entry: G31A C33G
**A:** 0

**Q:** Fill in reported self-cleavage for this entry: C21G U46G
**A:** 0.0978

**Q:** Fill in reported self-cleavage for this entry: C15G G54C
**A:** 0.415

**Q:** Fill in reported self-cleavage for this entry: C36A C62U
**A:** 0.175

**Q:** Fill in reported self-cleavage for this entry: G25C C26U
**A:** 0

**Q:** Fill in reported self-cleavage for this entry: U23G A77C
**A:** 0.172

**Q:** Fill in reported self-cleavage for this entry: U72G C86U
**A:** 0.705

**Q:** Fill in reported self-cleavage for this entry: C18U C86U
**A:** 0.886

**Q:** Fill in reported self-cleavage for this entry: C48A C58G
**A:** 1.12

**Q:** Fill in reported self-cleavage for this entry: C18G C19A
**A:** 0.119

**Q:** Fill in reported self-cleavage for this entry: U37C U72G
**A:** 0.429

**Q:** Fill in reported self-cleavage for this entry: C19G A51C
**A:** 0.0369

**Q:** Fill in reported self-cleavage for this entry: C26A U79C
**A:** 0.469

**Q:** Fill in reported self-cleavage for this entry: C36A C84A
**A:** 0.192

**Q:** Fill in reported self-cleavage for this entry: C24A C86G
**A:** 0.724

**Q:** Fill in reported self-cleavage for this entry: G34A U69G
**A:** 0.306

**Q:** Fill in reported self-cleavage for this entry: C13U U79A
**A:** 0.256

**Q:** Fill in reported self-cleavage for this entry: C7G C85G
**A:** 0.237

**Q:** Fill in reported self-cleavage for this entry: G25U C84A
**A:** 0.222

**Q:** Fill in reported self-cleavage for this entry: G40A C64G
**A:** 0.531

**Q:** Fill in reported self-cleavage for this entry: C61A G73U
**A:** 0.353

**Q:** Fill in reported self-cleavage for this entry: G17U G67U
**A:** 0.609

**Q:** Fill in reported self-cleavage for this entry: G10C G74A
**A:** 0.119

**Q:** Fill in reported self-cleavage for this entry: G2A C61A
**A:** 0.351
